# Tested On: CebE^5601
# Construct: N-terminal His tag (pET28a); E. coli BL21(C43); Ni-NTA; labelled with red fluorescent dye
# Experiment Notes: microscale thermophoresis
# Condition Notes: 25 °C; protein 800 nM, dye-labelled; ligand series from 100 µM
Provide the reported Kd of each item.
Numbers only, in nM.

Molecule	Unit Label	Kd
OC[C@H]1O[C@@H](O[C@H]2[C@H](O)[C@@H](O)[C@H](O[C@H]3[C@H](O)[C@@H](O)C(O)O[C@@H]3CO)O[C@@H]2CO)[C@H](O)[C@@H](O)[C@@H]1O (some centres unmarked)	nM	1610

Could you now consider this next molecule?
Please list Kd recorded for the molecule OC[C@H]1O[C@@H](O[C@H]2[C@H](O)[C@@H](O)C(O)O[C@@H]2CO)[C@H](O)[C@@H](O)[C@@H]1O (some centres unmarked)
977

Origin of measurements: paper PMC10974276
